Biological target: T1, human LAP-TGFB1 Fc fusion (human)
T1 construct: also called human LAP-TGFβ1-Fc; human LAP-TGFβ-Fc isoform 1
T1 sequence (chain, as listed by the source limits assumed): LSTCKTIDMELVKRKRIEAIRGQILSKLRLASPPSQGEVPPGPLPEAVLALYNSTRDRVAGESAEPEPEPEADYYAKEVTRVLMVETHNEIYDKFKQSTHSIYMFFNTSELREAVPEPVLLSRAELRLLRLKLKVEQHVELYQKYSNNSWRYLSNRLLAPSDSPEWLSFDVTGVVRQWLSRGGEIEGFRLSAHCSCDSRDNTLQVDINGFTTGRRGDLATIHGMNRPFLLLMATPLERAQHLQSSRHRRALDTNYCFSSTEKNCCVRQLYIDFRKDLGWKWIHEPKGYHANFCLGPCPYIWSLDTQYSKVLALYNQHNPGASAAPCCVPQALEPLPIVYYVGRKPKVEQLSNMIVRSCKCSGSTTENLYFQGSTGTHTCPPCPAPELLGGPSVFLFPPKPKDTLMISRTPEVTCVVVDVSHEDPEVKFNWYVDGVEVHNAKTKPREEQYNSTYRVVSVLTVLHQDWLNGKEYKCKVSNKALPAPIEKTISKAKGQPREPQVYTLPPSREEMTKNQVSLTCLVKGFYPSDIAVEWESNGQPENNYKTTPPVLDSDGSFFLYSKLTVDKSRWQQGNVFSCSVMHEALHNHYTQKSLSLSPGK
Assay: BLI off-rate screen
Given measured koff, output 1 if it is greater than or equal to 0.04 s⁻¹ and 0 if not.

The following binders have reported results that may help.
VH R50Y (75BIT) (Fab, V domains shown, also called VH RSOY (75BIT)) VH: EVQLVQSGAEVKKPGASVKVSCKASGYTFTSYWMHWVRQAPGQGLEWMGYIDPQSGGIKYAQKFQGRATLTVDTSTSTAYMELSRLRSDDTAVYYCARWDYGGYFDVWGQGTLVTVSS VL: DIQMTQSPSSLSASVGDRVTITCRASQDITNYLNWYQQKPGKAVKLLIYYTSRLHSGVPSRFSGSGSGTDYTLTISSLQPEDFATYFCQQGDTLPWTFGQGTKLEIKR	1
VH K58Y (84BIT) (Fab, V domains shown) VH: EVQLVQSGAEVKKPGASVKVSCKASGYTFTSYWMHWVRQAPGQGLEWMGRIDPQSGGIYYAQKFQGRATLTVDTSTSTAYMELSRLRSDDTAVYYCARWDYGGYFDVWGQGTLVTVSS VL: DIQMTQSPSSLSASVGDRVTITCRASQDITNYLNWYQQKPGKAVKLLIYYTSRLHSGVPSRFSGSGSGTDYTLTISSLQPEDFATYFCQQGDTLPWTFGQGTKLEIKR	0
VL L33Y (46BIT) (Fab, V domains shown) VH: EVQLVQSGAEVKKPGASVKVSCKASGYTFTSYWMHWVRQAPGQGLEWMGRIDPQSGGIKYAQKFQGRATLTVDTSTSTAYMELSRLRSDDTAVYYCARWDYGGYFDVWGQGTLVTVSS VL: DIQMTQSPSSLSASVGDRVTITCRASQDITNYYNWYQQKPGKAVKLLIYYTSRLHSGVPSRFSGSGSGTDYTLTISSLQPEDFATYFCQQGDTLPWTFGQGTKLEIKR	1
VL R24Y (38BIT) (Fab, V domains shown) VH: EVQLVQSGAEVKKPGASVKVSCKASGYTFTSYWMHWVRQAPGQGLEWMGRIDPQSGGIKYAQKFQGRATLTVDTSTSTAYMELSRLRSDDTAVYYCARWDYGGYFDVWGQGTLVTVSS VL: DIQMTQSPSSLSASVGDRVTITCYASQDITNYLNWYQQKPGKAVKLLIYYTSRLHSGVPSRFSGSGSGTDYTLTISSLQPEDFATYFCQQGDTLPWTFGQGTKLEIKR	0
VH H35Y (73BIT) (Fab, V domains shown) VH: EVQLVQSGAEVKKPGASVKVSCKASGYTFTSYWMYWVRQAPGQGLEWMGRIDPQSGGIKYAQKFQGRATLTVDTSTSTAYMELSRLRSDDTAVYYCARWDYGGYFDVWGQGTLVTVSS VL: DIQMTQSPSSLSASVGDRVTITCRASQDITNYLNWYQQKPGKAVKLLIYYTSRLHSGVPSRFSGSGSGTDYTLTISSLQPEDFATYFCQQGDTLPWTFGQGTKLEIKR	1
VH P52aY (78BIT) (Fab, V domains shown) VH: EVQLVQSGAEVKKPGASVKVSCKASGYTFTSYWMHWVRQAPGQGLEWMGRIDYQSGGIKYAQKFQGRATLTVDTSTSTAYMELSRLRSDDTAVYYCARWDYGGYFDVWGQGTLVTVSS VL: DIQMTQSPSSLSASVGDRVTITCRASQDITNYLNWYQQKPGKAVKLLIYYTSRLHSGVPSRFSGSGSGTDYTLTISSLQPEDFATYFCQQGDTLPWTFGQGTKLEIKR	1
VH Q53Y (79BIT) (Fab, V domains shown) VH: EVQLVQSGAEVKKPGASVKVSCKASGYTFTSYWMHWVRQAPGQGLEWMGRIDPYSGGIKYAQKFQGRATLTVDTSTSTAYMELSRLRSDDTAVYYCARWDYGGYFDVWGQGTLVTVSS VL: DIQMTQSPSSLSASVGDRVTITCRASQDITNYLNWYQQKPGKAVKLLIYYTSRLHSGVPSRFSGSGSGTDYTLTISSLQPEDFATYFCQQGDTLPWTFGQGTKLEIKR	1
VH M34Y (72BIT) (Fab, V domains shown) VH: EVQLVQSGAEVKKPGASVKVSCKASGYTFTSYWYHWVRQAPGQGLEWMGRIDPQSGGIKYAQKFQGRATLTVDTSTSTAYMELSRLRSDDTAVYYCARWDYGGYFDVWGQGTLVTVSS VL: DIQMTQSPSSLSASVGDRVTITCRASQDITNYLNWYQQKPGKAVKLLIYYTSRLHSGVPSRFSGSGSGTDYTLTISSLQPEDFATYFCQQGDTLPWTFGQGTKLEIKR	1

Now consider a different binder.
Hi, just wondering whether VH G56Y (82BIT) (Fab, V domains shown) VH: EVQLVQSGAEVKKPGASVKVSCKASGYTFTSYWMHWVRQAPGQGLEWMGRIDPQSGYIKYAQKFQGRATLTVDTSTSTAYMELSRLRSDDTAVYYCARWDYGGYFDVWGQGTLVTVSS VL: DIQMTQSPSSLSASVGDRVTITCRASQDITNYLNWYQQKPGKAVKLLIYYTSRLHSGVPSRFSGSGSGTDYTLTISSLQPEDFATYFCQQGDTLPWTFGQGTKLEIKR shows koff of 0.04 s⁻¹ or higher.
1
